target: ENaC (Epithelial Sodium Channel) (Mus musculus, UniProt Q61180+Q9WU38+Q9WU39); construct: Mouse kidney M-1 cells were cultivated in DMEM; endogenous in cells; assay: Ussing chamber: inhibition of amiloride sensitive short circuit current (I_sc) in M-1 cells; details: mouse kidney M-1 cells
Sequence (Q61180 whole entry): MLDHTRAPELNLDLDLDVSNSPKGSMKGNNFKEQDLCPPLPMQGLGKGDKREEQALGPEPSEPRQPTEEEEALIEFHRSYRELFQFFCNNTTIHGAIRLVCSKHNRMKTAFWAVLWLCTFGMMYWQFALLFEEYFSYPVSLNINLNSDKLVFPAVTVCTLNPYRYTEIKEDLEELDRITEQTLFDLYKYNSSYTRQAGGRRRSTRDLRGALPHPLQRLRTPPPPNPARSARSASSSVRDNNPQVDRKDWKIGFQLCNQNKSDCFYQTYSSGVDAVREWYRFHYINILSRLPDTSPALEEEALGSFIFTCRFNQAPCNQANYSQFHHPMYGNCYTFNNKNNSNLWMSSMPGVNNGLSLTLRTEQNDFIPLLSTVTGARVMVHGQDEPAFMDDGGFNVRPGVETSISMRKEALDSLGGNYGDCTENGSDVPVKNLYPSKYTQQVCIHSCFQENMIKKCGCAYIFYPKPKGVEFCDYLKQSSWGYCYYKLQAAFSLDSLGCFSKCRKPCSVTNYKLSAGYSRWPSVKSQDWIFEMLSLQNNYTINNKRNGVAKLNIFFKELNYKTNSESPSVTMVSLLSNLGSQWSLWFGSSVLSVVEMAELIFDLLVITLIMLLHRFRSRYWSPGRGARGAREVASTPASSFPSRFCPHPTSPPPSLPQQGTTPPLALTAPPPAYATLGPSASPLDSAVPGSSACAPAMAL
Sequence (Q9WU38 whole entry): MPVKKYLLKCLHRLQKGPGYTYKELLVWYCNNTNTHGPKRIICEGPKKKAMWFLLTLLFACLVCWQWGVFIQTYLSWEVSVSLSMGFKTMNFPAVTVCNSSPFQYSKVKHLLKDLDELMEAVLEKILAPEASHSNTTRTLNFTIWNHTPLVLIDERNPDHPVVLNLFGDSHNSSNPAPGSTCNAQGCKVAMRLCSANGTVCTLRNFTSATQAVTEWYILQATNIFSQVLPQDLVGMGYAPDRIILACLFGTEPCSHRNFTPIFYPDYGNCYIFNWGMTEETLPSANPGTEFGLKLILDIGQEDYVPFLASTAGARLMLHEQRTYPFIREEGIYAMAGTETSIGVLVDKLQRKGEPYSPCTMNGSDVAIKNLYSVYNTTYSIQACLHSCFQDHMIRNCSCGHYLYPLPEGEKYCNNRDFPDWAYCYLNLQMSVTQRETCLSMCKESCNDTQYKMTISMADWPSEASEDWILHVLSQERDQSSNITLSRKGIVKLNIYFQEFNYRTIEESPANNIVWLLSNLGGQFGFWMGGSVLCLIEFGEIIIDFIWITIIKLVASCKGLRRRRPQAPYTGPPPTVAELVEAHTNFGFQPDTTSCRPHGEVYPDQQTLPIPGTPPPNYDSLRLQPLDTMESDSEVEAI
Sequence (Q9WU39 whole entry): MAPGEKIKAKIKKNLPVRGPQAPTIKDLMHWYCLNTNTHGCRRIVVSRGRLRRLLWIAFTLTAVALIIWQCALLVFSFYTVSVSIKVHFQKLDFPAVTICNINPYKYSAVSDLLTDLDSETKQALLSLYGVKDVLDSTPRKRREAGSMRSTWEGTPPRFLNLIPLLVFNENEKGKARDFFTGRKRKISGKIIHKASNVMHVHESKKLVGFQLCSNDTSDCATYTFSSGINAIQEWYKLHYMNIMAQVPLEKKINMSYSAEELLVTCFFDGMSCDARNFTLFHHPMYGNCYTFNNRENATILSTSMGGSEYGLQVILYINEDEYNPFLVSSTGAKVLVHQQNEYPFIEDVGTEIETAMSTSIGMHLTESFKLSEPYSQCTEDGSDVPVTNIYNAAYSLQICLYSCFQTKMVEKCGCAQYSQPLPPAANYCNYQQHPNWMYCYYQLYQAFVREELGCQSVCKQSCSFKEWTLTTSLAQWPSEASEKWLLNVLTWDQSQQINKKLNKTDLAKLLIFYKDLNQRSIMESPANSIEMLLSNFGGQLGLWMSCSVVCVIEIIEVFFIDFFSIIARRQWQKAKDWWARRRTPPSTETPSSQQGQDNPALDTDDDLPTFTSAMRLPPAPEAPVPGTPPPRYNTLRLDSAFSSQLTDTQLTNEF
quantity_measured: IC50 (nM)

These solved cases illustrate the format of a correct answer.
>>> print(df.to_string())
                                 mol_smiles  quantity_measured  result_units  number
0  NC(=NC(=O)c1nc(Cl)c(N)nc1N)NC1CCN(Cc2ccc(CCC(=O)O)cc2)CC1               IC50            nM      30
1  NC(=NC(=O)c1nc(Cl)c(N)nc1N)NC1CCN(Cc2ccccc2C(=O)O)CC1               IC50            nM     243
2  COCCOc1ccc(CCc2ccc(CN3CCC(NC(N)=NC(=O)c4nc(Cl)c(N)nc4N)CC3)cc2)nn1               IC50            nM       7
3  COc1ccc(C(=O)CN2CCC(NC(N)=NC(=O)c3nc(Cl)c(N)nc3N)CC2)cc1               IC50            nM      11
4  CC(C)(C)OC(=O)c1ccc(CN2CCC[C@@H](NC(N)=NC(=O)c3nc(Cl)c(N)nc3N)C2)cc1               IC50            nM      47
5  NC(=NC(=O)c1nc(Cl)c(N)nc1N)NC1CCN(Cc2ccc(C(=O)NCCc3cn(CCCO)cn3)cc2)CC1               IC50            nM       2
6  N/C(=N\C(=O)c1nc(Cl)c(N)nc1N)NC1CCN(Cc2ccc(CCn3cc(CCC(=O)N(CCO)CCO)nn3)cc2)CC1               IC50            nM      29
7  CN(Cc1cn(-c2ccc(CN3CCC(NC(N)=NC(=O)c4nc(Cl)c(N)nc4N)CC3)cc2)nn1)C(=O)CCNCCOCCOCCOCCOC(c1ccccc1)(c1ccccc1)c1ccccc1               IC50            nM       1

(1) NC(=NC(=O)c1nc(Cl)c(N)nc1N)NC1CCN(Cc2ccc(C(=O)NCCOCCOCCO)cc2)CC1
(2) COC(=O)COc1ccc(CN2CC[C@H](NC(N)=NC(=O)c3nc(Cl)c(N)nc3N)C2)cc1
Req: Which item exceeds the other in IC50, 1 or 2 ? Mark your selection by writing its label.
Resp: 2
(2: 59 nM, 1: 6 nM)

(1) CN(Cc1cn(CCc2ccc(CN3CCC(NC(N)=NC(=O)c4nc(Cl)c(N)nc4N)CC3)cc2)nn1)C(=O)CCNC(=O)OC(C)(C)C
(2) NC(=NC(=O)c1nc(Cl)c(N)nc1N)NC1CCN(Cc2ccc(-c3cn(CCOCCOCCOCCNC(=O)c4cc(OCCOCCOCCOCCO)cc(OCCOCCOCCOCCO)c4)nn3)cc2)CC1
Req: Param pair: 1 , 2 . Output: the one whose IC50 is numerically greater. In your reply, give the label of the chosen option.
Resp: 2

(P) NCCOCCOCCNC(=O)c1ccc(CN2CCC(NC(N)=NC(=O)c3nc(Cl)c(N)nc3N)CC2)cc1
(Q) COCCOc1ccc(C(=O)NCCOCCOCCNC(=O)c2ccc(CN3CCC(NC(N)=NC(=O)c4nc(Cl)c(N)nc4N)CC3)cc2)cc1
Req: Select one: P or Q . Criterion: greater recorded IC50. Your answer should be the label of the entry you select.
Resp: Q

(P) N/C(=N\C(=O)c1nc(Cl)c(N)nc1N)NC1CCN(Cc2ccc(B(O)O)cc2)CC1
(Q) NC(=NC(=O)c1nc(Cl)c(N)nc1N)N[C@H]1CCN(Cc2ccc(OCC(=O)O)cc2)C1
Req: Quick one: lower IC50, P or Q ? Provide the label of your selected option as the answer.
Resp: P
(P: 7 nM, Q: 31 nM)

(A) NC(=NC(=O)c1nc(Cl)c(N)nc1N)NC1CCN(Cc2ccc(C(=O)NCCc3cccnc3)cc2)CC1
(B) NC(=NC(=O)c1nc(Cl)c(N)nc1N)NC1CCN(Cc2ccc(-n3cc(CCC(=O)O)nn3)cc2)CC1
Req: Please state the entry with greater IC50 among A and B . Record your answer as the label of the chosen record.
Resp: B
(B: 57 nM, A: 3 nM)

src = patent US8859559B2
